Target: HDAC3:SMRT (Homo sapiens, UniProt O15379+Q9Y618)
Sequence (O15379 whole entry): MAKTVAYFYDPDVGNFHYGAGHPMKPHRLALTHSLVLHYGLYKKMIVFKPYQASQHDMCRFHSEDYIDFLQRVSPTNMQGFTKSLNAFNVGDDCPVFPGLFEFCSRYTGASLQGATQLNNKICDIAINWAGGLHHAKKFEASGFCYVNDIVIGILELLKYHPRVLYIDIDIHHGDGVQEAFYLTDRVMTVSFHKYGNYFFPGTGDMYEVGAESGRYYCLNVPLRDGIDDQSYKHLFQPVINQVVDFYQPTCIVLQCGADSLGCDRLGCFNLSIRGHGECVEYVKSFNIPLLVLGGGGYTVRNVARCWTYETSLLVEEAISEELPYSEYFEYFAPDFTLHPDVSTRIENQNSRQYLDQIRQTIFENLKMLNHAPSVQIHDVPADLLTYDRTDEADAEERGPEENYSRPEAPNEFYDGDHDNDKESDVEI
Sequence (Q9Y618 350-480): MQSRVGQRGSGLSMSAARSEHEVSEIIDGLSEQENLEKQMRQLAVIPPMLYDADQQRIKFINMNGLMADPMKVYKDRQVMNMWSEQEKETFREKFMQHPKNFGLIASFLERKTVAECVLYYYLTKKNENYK
Experiment: Fluorescence anisotropy displacement of 2-FAM-Ins(1,3,4,5,6)P5
Conditions: read-out: IC50 displacement of 2-FAM-Ins(1,3,4,5,6)P5; fluorescence anisotropy competition
measure name: IC50 (µM)
Numbers only, in µM.

* O=P(O)(O)O[C@@H]1C(O)[C@H](OP(=O)(O)O)[C@@H](OP(=O)(O)O)C(O)[C@H]1OP(=O)(O)O (some centres unmarked) | 1.5

Param readout = IC50; param system = HDAC3:SMRT (Homo sapiens, UniProt O15379+Q9Y618); param query = `O=P(O)(O)O[C@@H]1[C@H](O)[C@H](O)[C@@H](OP(=O)(O)O)[C@H](OP(=O)(O)O)[C@H]1O` ; response: value
19
